Tested on: Franklinella occidentalis
Experiment: Insecticidal activity against Franklinella occidentalis nymphs, sprayed bean leaves
Format: in vivo
Conditions: 100 mg/L
measurement name: Mortality rate (%, 3 days after the administration) 100 mg/L (%)
Give bare numbers, in %.

{"columns": ["molecule", "value unit", "observed result"],
 "data": [
  ["C#CCN(C(=O)c1ccc(F)nc1)c1cccc(C(=O)Nc2c(I)cc(C(F)(C(F)(F)F)C(F)(F)F)cc2C(F)(F)F)c1F [Compound 48]", "%", 100],
  ["C#CCN(C(=O)c1ccc(F)nc1)c1cccc(C(=O)Nc2c(Br)cc(C(F)(C(F)(F)F)C(F)(F)F)cc2C(F)(F)F)c1F [Compound 47]", "%", 100],
  ["C=CCN(C(=O)c1ccc(F)nc1)c1cccc(C(=O)Nc2c(I)cc(C(F)(C(F)(F)F)C(F)(F)F)cc2C(F)(F)F)c1F [Compound 20]", "%", 100],
  ["C#CCN(C(=O)c1ccc(F)cc1)c1cccc(C(=O)Nc2c(I)cc(C(F)(C(F)(F)F)C(F)(F)F)cc2C(F)(F)F)c1F [Compound 36]", "%", 100],
  ["C#CCN(C(=O)c1ccc(F)cc1)c1cccc(C(=O)Nc2c(Br)cc(C(F)(C(F)(F)F)C(F)(F)F)cc2C(F)(F)F)c1F [Compound 35]", "%", 100]
]}

# ---- query molecule ----
Query block: Fill in the blank: the reported Mortality rate (%, 3 days after the administration) 100 mg/L of CN(C(=O)c1ccc(F)cc1)c1cccc(C(=O)Nc2c(I)cc(C(F)(C(F)(F)F)C(F)(F)F)cc2C(F)(F)F)c1F [KC5, reference compound] is ____.
Result block: 51.11

====

System: Diamondback moth
Assay: Insecticidal activity against Diamondback moth, Airbrush spray on cabbage leaf discs
Assay type: in vivo
Details: Plutella xylostella, foliar, 72 h; 0.156 mg/L, 3 days after the administration, Diamondback moth; read-out: Mortality rate (%, 3 days after the administration) 0.156 mg/L
measurement name: mortality at 0.156 µg/mL (%)
One number for each entry, in %.

{"columns": ["compound", "target or system", "mortality at 0.156 µg/mL [%]"],
 "data": [
  ["C=CCN(C(=O)c1ccc(F)nc1)c1cccc(C(=O)Nc2c(I)cc(C(F)(C(F)(F)F)C(F)(F)F)cc2C(F)(F)F)c1F", "Diamondback moth", 100],
  ["C=CCN(C(=O)c1ccc(F)nc1)c1cccc(C(=O)Nc2c(Br)cc(C(F)(C(F)(F)F)C(F)(F)F)cc2C(F)(F)F)c1F", "Diamondback moth", 100],
  ["CN(C(=O)c1ccc(F)cc1)c1cccc(C(=O)Nc2c(Br)cc(C(F)(C(F)(F)F)C(F)(F)F)cc2C(F)(F)F)c1F [KC4, reference compound]", "Diamondback moth", 60],
  ["C#CCN(C(=O)c1ccccc1)c1cccc(C(=O)Nc2c(Br)cc(C(F)(C(F)(F)F)C(F)(F)F)cc2C(F)(F)F)c1F", "Diamondback moth", 100],
  ["C#CCN(C(=O)c1ccc(F)cc1)c1cccc(C(=O)Nc2c(Br)cc(C(F)(C(F)(F)F)C(F)(F)F)cc2C(F)(F)F)c1F", "Diamondback moth", 100]
]}

# ---- query compound ----
Query block: Fill in the blank: the reported mortality at 0.156 µg/mL of CN(C(=O)c1ccc(F)nc1)c1cccc(C(=O)Nc2c(Br)cc(C(F)(C(F)(F)F)C(F)(F)F)cc2C(F)(F)F)c1F [KC7, reference compound] is ____.
Result block: 56.7
